Parameter 'readout' = IC50; parameter 'system' = human β-glucocerebrosidase (Homo sapiens, UniProt P04062).
Sequence (P04062 40-536): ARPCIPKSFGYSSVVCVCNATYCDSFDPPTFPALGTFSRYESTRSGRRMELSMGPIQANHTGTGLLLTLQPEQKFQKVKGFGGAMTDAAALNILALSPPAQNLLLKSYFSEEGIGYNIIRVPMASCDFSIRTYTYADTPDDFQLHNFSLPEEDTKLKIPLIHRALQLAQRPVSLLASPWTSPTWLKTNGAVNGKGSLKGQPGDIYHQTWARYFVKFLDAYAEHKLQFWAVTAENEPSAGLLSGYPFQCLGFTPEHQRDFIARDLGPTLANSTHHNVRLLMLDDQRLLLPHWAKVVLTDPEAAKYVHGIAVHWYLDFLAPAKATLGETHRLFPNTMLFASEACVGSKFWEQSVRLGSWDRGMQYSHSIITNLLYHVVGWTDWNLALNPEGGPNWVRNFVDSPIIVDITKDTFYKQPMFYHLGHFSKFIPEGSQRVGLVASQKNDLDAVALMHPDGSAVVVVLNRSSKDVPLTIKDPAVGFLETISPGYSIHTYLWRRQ
resultType: IC50 (µM)

[[record]]
compound = "O[C@@H]1[C@H](O)[C@H]2CC[C@](O)(N2)[C@H]1O"
observedresult = 82

[[record]]
compound = "O[C@@H]1[C@@H](O)C[C@]2(O)CC[C@H]1N2"
observedresult = 31

[[record]]
compound = "CN1C2CCC1(O)C(O)C(O)C2O (stereo not shown)"
observedresult = 320

[[record]]
compound = "OCC1CN(CCCC2CCCCC2)CC(O)C1O (stereo not shown)"
observedresult = 100

[[record]]
compound = "OC1CC2(O)NC1C(O)C(O)C2O (stereo not shown)"
observedresult = 2.5

[[record]]
compound = "O[C@@H]1C[C@H]2CC[C@](O)(N2)[C@H]1O"
observedresult = 3.1

[[record]]
compound = "CCCCN1C[C@H](CO)[C@@H](O)[C@H](O)C1"
observedresult = 44


Attribution: patent US20150258129A1
